Reference source for all entries: patent US10517889B2

In this section we review reported % inhibition of SMAD7 mRNA expression values for a set of substances.
test system: human SMAD7 mRNA; assay: Dose-dependent inhibition of human SMAD7 mRNA expression in Hep3B cells (Example 3, Study 1 and 2); type: cell-based; conditions: 312.5 nM, electroporation, approximately 16 hours, Study 1, relative to untreated control cells
Strand notation (5' to 3'): a small letter for the sugar, then the base; units joined by * are phosphorothioate-linked, units joined directly phosphodiester-linked; [ ] holds rarer units or linkages, { } end groups; capitals alone tell only the bases. e = 2'-O-(2-methoxyethyl) (MOE); [5mC] = 5-methylcytosine; d = 2'-deoxy (DNA)
Enter your answer as a number in %; do not include the unit.

Below, 4 substances whose answers are already recorded.
substance: 771474 (antisense eG*e[5mC]*eA*eG*e[5mC]*d[5mC]*dG*dA*dT*dT*dT*dT*dG*d[5mC]*dT*e[5mC]*e[5mC]*eG*e[5mC]*eA) [compound 771474]
value-units: %
measurement: 3
--
substance: 771797 (antisense eG*e[5mC]*eA*e[5mC]*eA*dG*dA*d[5mC]*dT*dG*d[5mC]*d[5mC]*dA*dA*dA*eT*e[5mC]*eA*e[5mC]*eA) [compound 771797]
value-units: %
measurement: 1
--
substance: 771444 (eA*eG*e[5mC]*e[5mC]*eT*d[5mC]*dT*dT*dG*dA*d[5mC]*dT*dT*d[5mC]*d[5mC]*eG*eA*eG*eG*eA; antisense) [compound 771444]
value-units: %
measurement: 0
--
substance: 771386 (antisense e[5mC]*eT*eG*eG*eA*d[5mC]*dA*dG*dT*d[5mC]*dT*dG*d[5mC]*dT*dG*eT*eG*eG*eA*eT) [compound 771386]
value-units: %
measurement: 9

Reported % inhibition of SMAD7 mRNA expression for 278478 (antisense eA*e[5mC]*eA*eT*eG*dA*d[5mC]*d[5mC]*dT*d[5mC]*d[5mC]*dG*d[5mC]*dA*d[5mC]*eA*e[5mC]*e[5mC]*eA*eT) [compound 278478] was 0
